assay target: TAS2R14 (Homo sapiens, UniProt Q9NYV8)
Construct: full-length cDNA, stably expressed in HEK293 cells with chimeric G16gust44 (G alpha 16 fused with 44 amino acids of gustducin)
Sequence (Q9NYV8 whole entry, the tested form may be a part): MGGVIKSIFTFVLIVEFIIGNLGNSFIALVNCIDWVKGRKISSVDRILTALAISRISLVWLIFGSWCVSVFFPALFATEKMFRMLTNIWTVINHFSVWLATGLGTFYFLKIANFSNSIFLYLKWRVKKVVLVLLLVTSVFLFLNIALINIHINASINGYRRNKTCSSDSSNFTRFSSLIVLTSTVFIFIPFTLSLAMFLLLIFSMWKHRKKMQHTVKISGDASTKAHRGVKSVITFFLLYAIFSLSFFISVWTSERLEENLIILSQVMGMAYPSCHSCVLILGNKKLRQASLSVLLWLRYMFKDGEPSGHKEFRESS
protocol notes: Fluo-4 calcium mobilization, HEK293-TAS2R14-G16gust44 cells
Assay type: cell-based
measurement kind: pEC50
Reminder that pEC50 means the negative base-10 logarithm of the concentration expressed in mol/L.

Prompt line: Please look at this molecule and report its pEC50: COc1cccc2c1cc([N+](=O)[O-])c1c(C(=O)O)cc3c(c12)OCO3 [AAA, aristolochic acid A]
Response line: 5.70
